- testedTarget: M. tuberculosis RNAP (Mycobacterium tuberculosis, UniProt P9WGY7+P9WGY9)
- protocol: biochemical
- experimentalContext: fluorescent run-off transcription assay, triplicate, mean ± s.d.; read-out: IC50 Mtb RNAP, fluorescence read-out
property: pIC50
Lab note — pIC50 values are minus log10 of concentrations in M.

[[record]]
smilesstr = "CC[C@H]1/C=C(\\C)[C@@H](O)C/C=C/C=C(\\CNc2nc(-c3ccccc3)cs2)C(=O)O[C@H]([C@@H](C)O)C/C=C(C)/C=C(\\C)[C@@H]1O[C@@H]1OC(C)(C)[C@@H](OC(=O)C(C)C)[C@H](O)[C@@H]1O"
property = "pIC50"
readoutnumber = 6.89


Prompt: For M. tuberculosis RNAP (Mycobacterium tuberculosis, UniProt P9WGY7+P9WGY9), give the measured pIC50 of the entry CC[C@H]1/C=C(\C)[C@@H](O)C/C=C/C=C(\CNCc2nnc(-c3ccccc3)o2)C(=O)O[C@H]([C@@H](C)O)C/C=C(C)/C=C(\C)[C@@H]1O[C@@H]1OC(C)(C)[C@@H](OC(=O)C(C)C)[C@H](O)[C@@H]1O
Completion: 6.38
